System: SK-MEL-28
Experiment: NCI tumour cell line growth inhibition, 48 h
The source made the active and inactive calls. No stated cut-off is given here; in the data, active = GI50 up to about 1.1 µM and inactive = higher.
Please respond with reported GI50 for every item in the list.

Here is how some compounds turned out for GI50.
> print(dat)
                                   compound     target            measvalue
1        CN(C)c1ccc(/C=C2\Oc3ccccc3C2=O)cc1  SK-MEL-28  > 100 µM (inactive)
2  CON(C)C(=O)C(Cc1ccccc1)NC(=O)OC(C)(C)C (stereo not given)  SK-MEL-28  > 100 µM (inactive)
3  Nc1ncnc2c1nc(Cl)n2[C@@H]1O[C@@H]2COP(=O)(O)O[C@H]2[C@H]1O [TOCLADESINE]  SK-MEL-28    295 µM (inactive)
4  Cc1nnc2nc(-c3ccc(Cl)cc3Cl)cc(-c3ccc(Cl)cc3)n12  SK-MEL-28     21 µM (inactive)
5          Cc1nc2ccccc2n1CCc1nc2ccccc2[nH]1  SK-MEL-28  > 100 µM (inactive)

Could you tell me GI50 for each of these compounds? They are listed below.
1. CC(C)(C)OC(=O)CC(NC(=O)OC(C)(C)C)C(=O)NC(C(=O)O)C(O)c1ccccc1 (stereo not given)
2. C/C(Cl)=N\OC(=O)Nc1ccc(C)cc1
3. CN(C)CC1(C)CC/C(=C\c2ccccc2)C1=O (stereo not given)
4. CSc1ccc2c(cc1=O)[C@@H](NC(=O)c1cccc([N+](=O)[O-])c1)CCc1cc(O)c(O)c(O)c1-2
5. CN1C2CCC1/C(=C/c1cccc3c1OCO3)C(=O)/C2=C\c1cccc2c1OCO2

Outgoing:
1. > 100 µM (inactive)
2. 14.5 µM (inactive)
3. > 100 µM (inactive)
4. > 100 µM (inactive)
5. > 100 µM (inactive)

* * *

Test system: NCI-H460
Experiment: NCI tumour cell line growth inhibition, 48 h
Calls of active or inactive are those of the source. Rule as the data show it: active = GI50 up to about 1.1 µM and inactive = higher.
Pick one and only one: active, inactive

Answered examples (6):
> print(dat)
                                   compound  grouplabel
1  C/C(=N\NC(=O)CC(=O)Nc1ccc(Cl)cc1)c1cc2ccccc2oc1=O    inactive
2  Cc1ccc(OCC2CO2)c(Br)c1 (centres undefined)    inactive
3  O=C1C(Cl)=C(N2CCN(CCOCCO)CC2)C(=O)c2c(O)ccc(O)c21    inactive
4  C#C[C@]1(O)CC[C@H]2[C@@H]3CCC4=C/C(=N/OCCN(C)C)CC[C@]4(C)[C@H]3CC[C@@]21C    inactive
5  CCCCCCc1cc2cc(-c3csc(-c4ccc(OC)cc4)n3)c(=O)oc2cc1O    inactive
6  CO[C@H]1C[C@H](O[C@H]2CC[C@@]3(C)[C@H](CC[C@@H]4[C@@H]3CC[C@]3(C)[C@@H](C5=CC(=O)OC5)CC[C@]43O)C2)O[C@H](C)[C@H]1O      active

Incoming: Assay result, entry S=c1nc(N2CCCCC2)ss1 — outcome?
Outgoing: inactive

Incoming: Also O=C1C(N2CCNCC2)=C(Cl)C(=O)c2ncccc21 ?
Outgoing: inactive

Incoming: Another: Cc1cc(C)n(-c2nc3ccccc3c(=O)n2-c2ccccc2)n1
Outgoing: inactive

* * *

Tested on: SK-MEL-2
Assay: NCI tumour cell line growth inhibition, 48 h
Activity calls are given as the source filed them. Rule as the data show it: active = GI50 up to about 1.1 µM and inactive = higher.
Consider the following compounds; for each one, report its GI50.

compound	target	GI50
CC(=O)OC1C(O)COC(O[C@H]2CC[C@]34C[C@]35CC[C@]3(C)C([C@@]6(C)CC[C@@H](C(C)(C)O)O6)[C@@H](O)C[C@@]3(C)C5C[C@H](OC3OCC(O)C(O)C3O)[C@H]4C2(C)C)C1OC1OCC(O)C(O)C1O (some centres undefined)	SK-MEL-2	> 100 µM (inactive)
O=[N+]([O-])c1ccc(N/N=C2/CC3=C2CCCCCCCCCC3)c([N+](=O)[O-])c1	SK-MEL-2	> 100 µM (inactive)
O=C(c1ccccc1)c1c(CC(O)c2ccccc2)n(C(=O)c2ccccc2)c2ccccc12 (centres undefined)	SK-MEL-2	36.5 µM (inactive)

Now for a further compound.
Incoming: // lookup GI50 for C/C(=C\CO)CC/C=C(\C)CNc1ccc([N+](=O)[O-])cc1
Outgoing: 20.4 µM (inactive)

* * *

System: SR
Test: NCI tumour cell line growth inhibition, 48 h
Active and inactive are the calls of the source. Cut-off read from the data, not from the text of the source: active = GI50 up to about 1.1 µM and inactive = higher.
Permitted responses: active, inactive

compound	groupLabel
C/C=C/C=C\C=C/C(O)C(C)C(CCC(C)C1OC(=O)C=CC1C)OP(=O)(O)O (stereo not given)	active
O=C(c1ccccc1)c1cccc(C(=O)c2ccccc2)c1	inactive
O=C1C(CN2CCCCC2)CCCC1CN1CCCCC1 (stereo not given)	inactive
Sc1ncnc2c1ncn2Cc1ccco1	inactive
CN(C)c1nc(-c2ccccc2)c(C(=O)c2c[nH]c3ccccc23)s1	inactive

Incoming: Please let me know the test result on file for CN1c2ccccc2SC2C(c3ccccc3)=NOC21 (stereo not given) .
Outgoing: inactive

Incoming: Now the compound OCCN1c2ccccc2Sc2ccccc21
Outgoing: inactive

Incoming: What do you get for O=C(Cc1ccccc1)Nc1nc2ccc(Cl)cc2c2nc(-c3ccco3)nn12 ?
Outgoing: inactive

Incoming: What about this compound? O=C1c2ccccc2-c2nnc(-c3ccccc3)cc21
Outgoing: inactive

Incoming: Same thing, different compound: CC(=O)NC1C(OCc2ccccc2)OC(COC(=O)CCCCCCCCCCNc2ccc([N+](=O)[O-])c3[nH]c4ccccc4c(=O)c23)C(O)C1OC(C)C(=O)NC(C)C(=O)NC(CCC(N)=O)C(=O)OCc1ccccc1 (stereo not given)
Outgoing: inactive

* * *

System: OVCAR-8
Test: NCI tumour cell line growth inhibition, 48 h
Active and inactive are the calls of the source. No stated cut-off is given here; in the data, active = GI50 up to about 1.1 µM and inactive = higher.
valueType: GI50

Below, each entry is followed by its recorded GI50 result.
compound	target	GI50
CCc1nc2c(c(N(C)C)c1C(=O)OC)CCc1ccccc1-2	OVCAR-8	34.1 µM (inactive)
CC1=C(C(=O)O)N2C(=O)[C@@H](NC(=O)C(c3ccc(O)cc3)N3CSC(=S)N(C(C)C)C3)C2SC1 (some centres not stated)	OVCAR-8	> 100 µM (inactive)
Clc1cc2ns[s+]c2cc1Cl	OVCAR-8	> 56.5 µM (inactive)
O=C1C(CN2CCCCC2)CCCC1CN1CCCCC1 (configuration not stated)	OVCAR-8	14.9 µM (inactive)
O=C1N=CN=C2C=CC(Cl)=C(I)C12 (configuration not stated)	OVCAR-8	> 100 µM (inactive)
Cc1c(CCO)c(O)n2c(nc3ccccc32)c1C#N	OVCAR-8	83.9 µM (inactive)
Cc1ccc(OCC2CO2)c(Br)c1 (configuration not stated)	OVCAR-8	7.8 µM (inactive)
COc1ccc(CCc2ccc3c(c2)OCO3)cc1	OVCAR-8	> 100 µM (inactive)

Okay, here is my list. What is GI50 for each of these?
1. C=C[C@@](C)(/C=C/c1ccc(O)cc1)CCC=C(C)C [BAKUCHIOL]
2. O=[N+]([O-])c1nccn1CCCNc1ccnc2cc(Cl)ccc12
3. COc1ccc2c(=O)oc3c(OC)cc(CCN(C)C)c4c(=O)oc1c2c34 [TASPINE]
4. COc1cc2nc(-c3cccs3)oc(=O)c2cc1OC
5. Oc1c(N2CCOCC2)cc(-c2cc(N3CCOCC3)c(O)c3ccccc23)c2ccccc12
6. Oc1cc(-c2ccccn2)nc2cc(F)ccc12

Outgoing:
["16.9 µM (inactive)", "7.4 µM (inactive)", "6.93 µM (inactive)", "53.1 µM (inactive)", "1.6 µM (inactive)", "> 100 µM (inactive)"]

* * *

Tested on: SNB-78
Test: NCI tumour cell line growth inhibition, 48 h
Calls of active or inactive are those of the source. Cut-off read from the data, not from the text of the source: active = GI50 up to about 1.1 µM and inactive = higher.
valueType: GI50

> print(dat)
                                   molecule             measvalue
1  CC(=O)OC1COC(N2CCc3ccccc32)C(OC(C)=O)C1OC(C)=O (stereo unspecified)  > 76.4 µM (inactive)
2             CS(=O)(=O)OCCCNCCCOS(C)(=O)=O    2100 µM (inactive)
3  Nc1ncnc2c1nc(Cl)n2[C@@H]1O[C@@H]2COP(=O)(O)O[C@H]2[C@H]1O     165 µM (inactive)
4             CN1Cc2cc3c(cc2-c2ccccc21)OCO3   > 100 µM (inactive)
5                       Clc1cc2nsnc2c(Cl)n1    56.4 µM (inactive)
6  CCN(CC)CCCNc1ncc(C)c2c1c1ccc3c(O)cccc3c1n2C    14.2 µM (inactive)

Please state GI50 for every molecule in the list that follows.
1. O=C(N/C(=C\c1ccc(Br)cc1)c1nc2ccccc2[nH]1)c1ccccc1
2. N#C[C-](C#N)[n+]1ccc(Cl)cc1
3. OCCN1CCN(CCO)Cc2ccccc2OCCOc2ccccc2C1

Outgoing:
["21.9 µM (inactive)", "17.9 µM (inactive)", "> 100 µM (inactive)"]

For every record below, what is its GI50?
1. CC(=O)NNc1nc(C)c(C(/C=C/c2ccc(Cl)cc2)=N\NS(=O)(=O)c2ccc(C)cc2)s1
2. COc1ccc(C(c2ccc(C(C)C)cc(=O)c2O)c2ccc3cccnc3c2O)cc1 (stereo unspecified)

Outgoing:
["> 100 µM (inactive)", "1.05 µM (active)"]

For each of the molecules below, note its GI50.
1. O=C1C2C3CC(C4C5C=CC(C5)C34)C2C2C3CC(C12)C1C2C=CC(C2)C31 (stereo unspecified)
2. Cc1ccc(S(=O)(=O)CNC(=S)CCCC(=S)NCS(=O)(=O)c2ccc(C)cc2)cc1

Outgoing:
> 100 µM (inactive)
78.9 µM (inactive)

Consider the following items and state reported GI50 for each.
1. COc1ccc(N2C(=O)[C@@H]3[C@H](C2=O)c2[nH]c4ccccc4c2C2CCC(C(C)(C)C)C[C@@H]23)cc1 (stereo partly specified)
2. C/C(=N\NC(N)=S)C(CN(CC(C)C)CC(C)C)C(=O)Nc1ccc(C)cc1C (stereo unspecified)

Outgoing:
1: 23.7 µM (inactive); 2: > 100 µM (inactive)

// input: 2 molecules below; output: GI50 for each
1. O=C(CCc1ccccc1)CC1OC(=O)C(Cl)=C1Cl (stereo unspecified)
2. CCCCCCCC(=O)OCC1OC(n2cc(F)c(=O)[nH]c2=O)C(N)C(O)C1O (stereo unspecified)

Outgoing:
46.5 µM (inactive)
> 100 µM (inactive)

Look at each molecule and report its GI50.
1. CC1=C(C(=O)CC(=O)C(=O)Nc2cccc(Cl)c2C)Sc2ccccc2N1
2. N=C(N)NS(=O)(=O)c1ccc(NCc2c3ccccc3nc3ccccc23)cc1
3. CCOC(=O)C1S/C(=N\c2ccc(Cl)cc2Cl)N=C1C (stereo unspecified)
4. NC1C(O)C(O)C(CO)OC1n1cc(F)c(=O)[nH]c1=O (stereo unspecified)

Outgoing:
["> 100 µM (inactive)", "23.1 µM (inactive)", "60.7 µM (inactive)", "> 100 µM (inactive)"]
